The reported measurements were obtained from ChEMBL document CHEMBL2331321.

Target: Androgen receptor (Homo sapiens, UniProt P10275, T878A)
Sequence (P10275 whole entry T878A): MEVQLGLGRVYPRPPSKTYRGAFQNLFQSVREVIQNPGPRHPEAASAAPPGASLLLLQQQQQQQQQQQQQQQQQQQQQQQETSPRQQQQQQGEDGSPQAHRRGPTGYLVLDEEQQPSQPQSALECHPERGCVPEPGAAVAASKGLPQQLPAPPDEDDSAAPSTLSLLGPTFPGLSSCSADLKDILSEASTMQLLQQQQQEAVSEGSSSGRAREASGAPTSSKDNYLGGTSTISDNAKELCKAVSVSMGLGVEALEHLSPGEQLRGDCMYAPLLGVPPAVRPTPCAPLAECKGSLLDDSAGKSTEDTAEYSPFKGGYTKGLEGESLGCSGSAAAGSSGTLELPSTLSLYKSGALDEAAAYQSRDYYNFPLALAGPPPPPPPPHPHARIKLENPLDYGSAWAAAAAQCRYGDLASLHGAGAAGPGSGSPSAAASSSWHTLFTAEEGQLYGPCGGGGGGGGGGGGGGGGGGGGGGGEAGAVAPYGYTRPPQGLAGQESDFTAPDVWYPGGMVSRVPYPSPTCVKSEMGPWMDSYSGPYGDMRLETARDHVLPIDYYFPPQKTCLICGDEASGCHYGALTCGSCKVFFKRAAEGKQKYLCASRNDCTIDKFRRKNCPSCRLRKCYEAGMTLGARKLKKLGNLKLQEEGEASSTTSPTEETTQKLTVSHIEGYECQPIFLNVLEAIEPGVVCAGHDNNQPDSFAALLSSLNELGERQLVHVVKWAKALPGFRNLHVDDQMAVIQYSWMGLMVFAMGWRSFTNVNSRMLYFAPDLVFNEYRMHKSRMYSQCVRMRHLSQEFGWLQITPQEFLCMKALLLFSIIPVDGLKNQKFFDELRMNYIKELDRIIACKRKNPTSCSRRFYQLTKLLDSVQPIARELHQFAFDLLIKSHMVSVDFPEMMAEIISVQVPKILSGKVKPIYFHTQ
pIC50: −log10 of the molar value.
Would you please tag the item t when its pIC50 is 7 or above, and f when it is below?

> print(dat)
                                   compound  class
1  N#Cc1ccc(N2CCC(O)(Cc3ccccc3)C2)cc1Cl (stereo not given)      f

Query string: Determine whether measured pIC50 meets or exceeds 7 for N#Cc1ccc(N2CCC(O)C2)cc1Cl (stereo not given)
Result string: f

Query string: Is it the case that `C[C@@H]1N(c2ccc(C#N)c(Cl)c2)CC[C@@]1(O)c1ccc(C(N)=O)cc1` has pIC50 reaching or exceeding 7?
Result string: t

Query string: API: above_or_equal(metric=pIC50, cutoff=7) for item `CNC(=O)c1ccc([C@]2(O)CCN(c3ccc(C#N)c(Cl)c3)[C@H]2C)cc1`
Result string: t

Query string: Identify whether the reported pIC50 of the following compound is 7 or greater: `C[C@@H]1N(c2ccc(C#N)c(Cl)c2)CC[C@@]1(O)c1ccc(F)cc1`
Result string: f
